Labels assigned by logP range: lower band (below 3), central band (3 to below 4), upper band (4 or more)

**Query** Class? Entry: `Fc1c(F)c(F)c(S)c(F)c1F`
**Result** lower band

**Query** Class? Entry: `Cc1cc(O)ccc1Cl`
**Result** central band

**Query** Class? Entry: `NC(=S)c1cc(I)c(O)c(I)c1`
**Result** central band

**Query** Class? Entry: `CSc1ccc(O)cc1C`
**Result** lower band

----------
logP values by entry
The reply should be a number, written without any unit.

Below, 6 molecules whose answers are already recorded.
COc1ccccc1[N+](=O)[O-] ... 2
CCCCN(CCCC)SN(C)C(=O)Oc1cccc2c1OC(C)(C)C2 ... 5
COc1c(I)cc(C#N)cc1[N+](=O)[O-] ... 2.9
CC(=O)Oc1c(I)cc(C#N)cc1I ... 3.8
CCCCCCCC(=O)Oc1c(I)cc(C#N)cc1I ... 6.8
O=[N+]([O-])c1ccc(Cl)c(O)c1 ... 2.4

**Query** Name the recorded logP for `CSc1c(C)cc(O)cc1C` .
**Result** 2.8

----------
value-kind: logP
The reply should be a number, written without any unit.

Below, 10 molecules whose answers are already recorded.
COC(=O)c1cc(I)c(O)c(I)c1 ... 3.9
N#Cc1cc(I)c(O)c([N+](=O)[O-])c1 ... 2.7
CNC(=O)Oc1c(I)cc(C#N)cc1I ... 3.3
CS(=O)(=O)c1c(F)c(F)c(F)c(F)c1F ... 1.2
Fc1c(F)c(F)c(C(F)(F)F)c(F)c1F ... 3
CC(C)C(=O)Oc1c(I)cc(C#N)cc1I ... 4.6
COc1c(I)cc(C#N)cc1I ... 4.1
O=C(O)c1cc(Cl)ccc1O ... 2.9
N#Cc1cc(I)cc(I)c1O ... 4.1
N#Cc1cc(I)c(O)c(I)c1 ... 3.8

**Query** Name the recorded logP for `O=C(O)c1cc(I)c(O)c(I)c1` .
**Result** 3.7

**Query** Name the recorded logP for `Cc1cc(I)c(O)c(I)c1` .
**Result** 4.2
